# ASSAY_SUMMARY: Antagonist activity at CCR2 in human PBMC assessed as inhibition of MCP1-induced chemotaxis
pIC50: −log10 of the molar value.
Threshold rule: pIC50 greater than or equal to 8 is met; below that, not met.

{"columns": ["CHEMICAL_SMILES", "ANSWER_LABEL"],
 "data": [
  ["CCC[C@H](O)[C@H](CNCc1ccc(C)cc1C)NC(=O)CC(=O)Nc1cc(NC)cc(C(F)(F)F)c1", "not met"],
  ["CCC[C@H](O)[C@H](CNCc1ccc(C)cc1C)NC(=O)CNC(=O)c1cc(C(F)(F)F)ccc1N", "not met"],
  ["CCC[C@H](O)[C@H](CNCc1ccc(C)cc1C)NC(=O)CC(=O)Nc1cccc(C(F)(F)F)c1", "not met"],
  ["CCC[C@H](O)[C@H](CNCc1ccc(C)cc1C)NC(=O)CNC(=O)c1cc(C(F)(F)F)ccc1NC(=O)NC", "met"],
  ["CCC[C@H](O)[C@H](CNCc1ccc(C)cc1C)NC(=O)CNC(=O)c1cc(C(F)(F)F)ccc1NC(C)(C)C", "not met"],
  ["CCC[C@H](O)[C@H](CNCc1ccc(C)cc1C)NC(=O)CNC(=O)c1cc(C(F)(F)F)ccc1NC(=O)N1CCC1", "met"],
  ["CCC[C@H](O)[C@H](CNCc1ccc(C)cc1C)NC(=O)CNC(=O)c1cc(C(F)(F)F)ccc1NC(=O)N1CCCC1", "met"]
]}
